B1: Peroxisome proliferator-activated receptor delta, residues 71 to 145; numbered along this chain, Q03181 (parent)
chain: NMECRVCGDKASGFHYGVHACEGCKGFFRRTIRMKLEYEKCERSCKIQKKNRNKCQYCRFQKCLALGMSHNAIRF

Variants of: B1
Assay: abundance fitness (aPCA) (normalised: wild type 0, dead -1); higher = more abundant; growth selection in yeast, the domain comes from the species named
Settings: Homo sapiens
quantity: abundance fitness

Answered cases to consult:
L66A :: -0.077
V18N :: -0.372
L64R :: -0.391
S69G :: -0.001
L36T :: -0.139
C55I :: -0.67
A20G :: -0.847
M68V :: -0.652
E42H :: -0.195
E39C :: -0.586

Fill in the blank: the reported abundance fitness of N71M is ____. -0.394

Please do the same for A65C as well. -0.295

Please do the same for F75D as well. 0.285

Please do the same for A72I as well. -0.297

Please do the same for E37A as well. -0.13

Please do the same for C7D as well. -0.952

Please do the same for R59V as well. -0.472

Please do the same for S44L as well. -0.038

Please do the same for I73C as well. 0.047
